- Test system: Galium (catchweed bedstraw, Galium aparine)
- Assay Details: Test A postemergence
- Assay type: in vivo
- Cond: Galium, post-emergence, 240 h, 125 g ai/ha, postemergence, visual injury vs untreated controls after approx. 10 d; 0 = no effect, 100 = complete control; read-out: Galium plant response rating (0 to 100 scale)
Reported Endpoint: pest or weed control at 125 g/ha (%)
Give bare numbers, in %.

Consider the reported pest or weed control at 125 g/ha for these compounds:
>>> endpoint_result("Cc1cc([C@H]2CN(C)C(=O)[C@@H]2C(=O)Nc2ccccc2F)no1")
0
>>> endpoint_result("O=C1NC[C@H](c2ccc(Cl)c(F)c2)[C@H]1C(=O)Nc1cccc(F)c1F")
70
>>> endpoint_result("Cc1c(F)cccc1NC(=O)[C@H]1C(=O)N(C)C[C@@H]1c1ccc(C(F)F)cc1")
60

Field: pest or weed control at 125 g/ha. Fill in for each record below.
1. CN1C[C@H](c2ccc([Si](C)(C)C)cc2)[C@@H](C(=O)Nc2cccc(F)c2F)C1=O
2. Cc1ccc([C@H]2CN(C)C(=O)[C@@H]2C(=O)Nc2cccc(C#N)c2F)cc1
3. CN1CC[C@H](c2ccc3c(c2)OC(F)(F)O3)[C@@H](C(=O)Nc2cccc(Cl)c2F)C1=O
4. CN1C[C@H](c2ccc(Cl)c(F)c2)[C@@H](C(=O)Nc2ccc(F)c(F)c2F)C1=O
5. COc1ccc(C(F)(F)F)cc1[C@H]1CN(C)C(=O)[C@@H]1C(=O)Nc1ccccc1F
6. N#Cc1ccc([C@H]2CNC(=O)[C@@H]2C(=O)Nc2cccc(F)c2F)cc1F
7. N#Cc1cc([C@H]2CNC(=O)[C@@H]2C(=O)Nc2ccccc2F)ccc1F
8. CON1CC[C@H](c2cccc(C(F)(F)F)c2)[C@@H](C(=O)Nc2ccc(F)c(F)c2F)C1=O

[30, 60, 0, 60, 0, 0, 20, 30]

// provenance: patent US12077503B2
